Source of measurements: ChEMBL document CHEMBL3885881

species: Rattus norvegicus; experiment: DrugMatrix - Regimen: Daily Repeat; format: toxicity, organism-based, Sprague-Dawley; design: regimen Daily Repeat, gender Male, age 6-8 weeks; conditions: in vivo, po, 0 mg/kg, 120 h, tissue Plasma, route oral GAVAGE, dose level Control, time 5 day, vehicle 100 % WATER
measuredQuantity: ASPARTATE AMINOTRANSFERASE (u/L)
Form entry: value (u/L) — number only.

Req: State its ASPARTATE AMINOTRANSFERASE for this molecule: `Cn1cc[nH]c1=S`
Resp: 85.67

Req: State its ASPARTATE AMINOTRANSFERASE for this molecule: `C[C@H]1c2cccc(O)c2C(=O)C2=C(O)[C@]3(O)C(=O)C(C(N)=O)=C(O)[C@@H](N(C)C)[C@@H]3[C@@H](O)[C@@H]21.O`
Resp: 81.67

Req: State its ASPARTATE AMINOTRANSFERASE for this molecule: `Cc1onc(-c2ccccc2Cl)c1C(=O)N[C@@H]1C(=O)N2[C@@H]1SC(C)(C)[C@@H]2C(=O)O`
Resp: 82.67

Req: State its ASPARTATE AMINOTRANSFERASE for this molecule: `C[C@H](CS)C(=O)N1CCC[C@H]1C(=O)O`
Resp: 99.5

Req: State its ASPARTATE AMINOTRANSFERASE for this molecule: COc1cc2nc(N3CCN(C(=O)C4COc5ccccc5O4)CC3)nc(N)c2cc1OC (stereo not given)
Resp: 81.67
